# experimental_system: σ1 receptor (Cavia porcellus)
# Construct: five guinea pig brains were homogenized with the Potter; tissue Harlan-Winkelmann, Borchen, Germany; host or cells: guinea pig brain (cortex) membrane homogenate
# measurement_description: σ1 receptor binding assay with [3H]-(+)-pentazocine
# Design: species or system guinea pig
# assay_context: guinea pig brain membranes, [3H]-(+)-pentazocine, three independent experiments; read-out: Ki ± SEM σ1
recorded_metric: pKi
# pKi: negative log10 of molar concentration; output just the value

Looking up CC(C)(C)OC(=O)N1CCC2(CC1)OC[C@H](O)c1ccccc12 [(R)-11] , I see its pKi listed as 8.28

###

For each record, write down the corresponding Selectivity σ1/σ2.
# experimental_system: σ1 receptor (Cavia porcellus, UniProt Q60492)
# Construct: five guinea pig brains were homogenized with the Potter; tissue Harlan-Winkelmann, Borchen, Germany; host or cells: guinea pig brain (cortex) membrane homogenate
# Sequence (Q60492 whole entry): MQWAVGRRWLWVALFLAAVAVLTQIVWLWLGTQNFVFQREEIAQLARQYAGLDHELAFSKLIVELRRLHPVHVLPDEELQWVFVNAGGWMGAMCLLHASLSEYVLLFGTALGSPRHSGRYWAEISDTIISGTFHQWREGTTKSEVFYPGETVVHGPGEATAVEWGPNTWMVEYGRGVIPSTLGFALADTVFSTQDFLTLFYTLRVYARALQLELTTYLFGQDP
# measurement_description: σ1 receptor binding assay with [3H]-(+)-pentazocine
# Parameters: species or system guinea pig

Looking up CCOC(=O)CO[C@@H]1COC2(CCN(Cc3ccccc3)CC2)c2ccccc21 [(S)-18] , I see its Selectivity σ1/σ2 listed as >5

Looking up CCO[C@H]1COC2(CCN(Cc3ccccc3)CC2)c2ccccc21 [(R)-16] , I see its Selectivity σ1/σ2 listed as 191

Looking up CO[C@@H]1COC2(CCN(Cc3ccccc3)CC2)c2ccccc21 [(S)-15] , I see its Selectivity σ1/σ2 listed as 77

Looking up CCOC(=O)CO[C@H]1COC2(CCN(Cc3ccccc3)CC2)c2ccccc21 [(R)-18] , I see its Selectivity σ1/σ2 listed as 138

Looking up FCCO[C@H]1COC2(CCN(Cc3ccccc3)CC2)c2ccccc21 [(R)-20] , I see its Selectivity σ1/σ2 listed as >210

###

For each record, write down the corresponding Selectivity σ1/σ2.
# experimental_system: σ1 receptor (Cavia porcellus)
# Construct: five guinea pig brains were homogenized with the Potter; tissue Harlan-Winkelmann, Borchen, Germany; host or cells: guinea pig brain (cortex) membrane homogenate
# measurement_description: σ1 receptor binding assay with [3H]-(+)-pentazocine
# Parameters: species or system guinea pig

Looking up CO[C@H]1COC2(CCN(Cc3ccccc3)CC2)c2ccccc21 [(R)-15] , I see its Selectivity σ1/σ2 listed as 958

Looking up CCO[C@@H]1COC2(CCN(Cc3ccccc3)CC2)c2ccccc21 [(S)-16] , I see its Selectivity σ1/σ2 listed as >235

Looking up OCCO[C@@H]1COC2(CCN(Cc3ccccc3)CC2)c2ccccc21 [(S)-19] , I see its Selectivity σ1/σ2 listed as >15

Looking up FCCO[C@@H]1COC2(CCN(Cc3ccccc3)CC2)c2ccccc21 [(S)-20] , I see its Selectivity σ1/σ2 listed as >170

Looking up OCCO[C@H]1COC2(CCN(Cc3ccccc3)CC2)c2ccccc21 [(R)-19] , I see its Selectivity σ1/σ2 listed as >15

###

# experimental_system: σ2 receptor (Rattus norvegicus, UniProt Q5U3Y7)
# Construct: two rat livers were cut into small pieces and homogenized with the Potter; tissue Harlan-Winkelmann, Borchen, Germany; host or cells: rat liver membrane homogenate
# Sequence (Q5U3Y7 whole entry): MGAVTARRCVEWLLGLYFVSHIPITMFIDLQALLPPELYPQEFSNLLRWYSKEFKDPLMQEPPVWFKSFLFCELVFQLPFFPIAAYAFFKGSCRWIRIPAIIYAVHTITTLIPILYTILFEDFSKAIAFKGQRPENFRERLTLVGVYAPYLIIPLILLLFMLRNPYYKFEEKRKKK
# measurement_description: σ2 receptor binding assay with [3H]DTG, σ1 sites masked with (+)-pentazocine
# assay_context: at a concentration of 1 µM, rat liver membranes, [3H]DTG; read-out: Inhibition of radioligand binding (σ2)
For each record, write down the corresponding inhibition at 1 µM.
Kindly answer with a numeric value in %, unit omitted.

Looking up FCCO[C@H]1COC2(CCN(Cc3ccccc3)CC2)c2ccccc21 [(R)-20] , I see its inhibition at 1 µM listed as 14

Looking up FCCO[C@@H]1COC2(CCN(Cc3ccccc3)CC2)c2ccccc21 [(S)-20] , I see its inhibition at 1 µM listed as 10

Looking up OCCO[C@H]1COC2(CCN(Cc3ccccc3)CC2)c2ccccc21 [(R)-19] , I see its inhibition at 1 µM listed as 0

Looking up OCCO[C@@H]1COC2(CCN(Cc3ccccc3)CC2)c2ccccc21 [(S)-19] , I see its inhibition at 1 µM listed as 0

###

# experimental_system: σ1 receptor (Cavia porcellus)
# Construct: five guinea pig brains were homogenized with the Potter; tissue Harlan-Winkelmann, Borchen, Germany; host or cells: guinea pig brain (cortex) membrane homogenate
# measurement_description: σ1 receptor binding assay with [3H]-(+)-pentazocine
# Design: species or system guinea pig
recorded_metric: Ki (nM)
Kindly answer with a numeric value in nM, unit omitted.

Looking up CO[C@H]1COC2(CCN(Cc3ccccc3)CC2)c2ccccc21 [(R)-15] , I see its Ki listed as 1.2

Looking up CO[C@@H]1COC2(CCN(Cc3ccccc3)CC2)c2ccccc21 [(S)-15] , I see its Ki listed as 8.8

Looking up FCCO[C@@H]1COC2(CCN(Cc3ccccc3)CC2)c2ccccc21 [(S)-20] , I see its Ki listed as 5.9

Looking up CCO[C@@H]1COC2(CCN(Cc3ccccc3)CC2)c2ccccc21 [(S)-16] , I see its Ki listed as 4.2

Looking up CCOC(=O)CO[C@H]1COC2(CCN(Cc3ccccc3)CC2)c2ccccc21 [(R)-18] , I see its Ki listed as 4

Looking up CCOC(=O)CO[C@@H]1COC2(CCN(Cc3ccccc3)CC2)c2ccccc21 [(S)-18] , I see its Ki listed as 114

Looking up CCO[C@H]1COC2(CCN(Cc3ccccc3)CC2)c2ccccc21 [(R)-16] , I see its Ki listed as 5

Looking up OCCO[C@H]1COC2(CCN(Cc3ccccc3)CC2)c2ccccc21 [(R)-19] , I see its Ki listed as 55

Looking up FCCO[C@H]1COC2(CCN(Cc3ccccc3)CC2)c2ccccc21 [(R)-20] , I see its Ki listed as 4.7

Looking up OCCO[C@@H]1COC2(CCN(Cc3ccccc3)CC2)c2ccccc21 [(S)-19] , I see its Ki listed as 64

Looking up [18F]CCO[C@H]1COC2(CCN(Cc3ccccc3)CC2)c2ccccc21 [[^18F]-(R)-20] , I see its Ki listed as 4.7

Provenance of the data: paper PMC3915196
